# experimental-target: HIV-1 JR-CSF Env R315A (HIV-1 isolate JR-CSF) (UniProt P20871)
# experimental-protocol: cell-based or functional assay
readout: Fold IC50 increase relative to wild-type

Entry PGT-125 (antibody, V domains shown) VH: QSQLQESGPRLVEASETLSLTCNVSGESTGACTYFWGWVRQAPGKGLEWIGSLSHCQSFWGSGWTFHNPSLKSRLTISLDTPKNQVFLKLTSLTAADTATYYCARFDGEVLVYNHWPKPAWVDLWGRGIPVTVSS VL: QSALTQPPSASGSPGQSITISCNGTATNFVSWYQQFPDKAPKLIIFGVDKRPPGVPDRFSGSRSGTTASLTVSRLQTDDEAVYYCGSLVGNWDVIFGGGTTLTVL : reported Fold IC50 increase relative to wild-type = ?
0.9 fold

Data request, read-out Fold IC50 increase relative to wild-type, for PGT-131 (antibody, V domains shown) VH: QVQLQESGPGLVKPSETLSLTCTVSGDSINTGHHYWGWVRQVPGKGPEWIAHIHYNTAVLHNPALKSRVTISIFTLKNLITLSLSNVTAADTAVYFCVRSGGDILYYIEWQKPHWFYPWGPGILVTVSS VL: QSALTQPPSASGSLGQSLTISCSGTGSDIGSWNFVSWYQQFPGRAPNLIIFEVNRRRSGVPDRFSGSKSGNTASLTVSGLRSEDEAEYFCSSLSGRWDIVFGGGTKVTVL
0.7 fold

Fold IC50 increase relative to wild-type lookup needed for PGT-127 (antibody, V domains shown) VH: QPQLQESGPGLVEASETLSLTCTVSGDSTGRCNYFWGWVRQPPGKGLEWIGSLSHCRSYYNTDWTYHNPSLKSRLTISLDTPKNQVFLRLTSVTAADTATYYCARFGGEVLVYRDWPKPAWVDLWGRGTLVVTVS VL: QSALTQPPSASGSPGQSITISCTGTSNNFVSWYQQYPGKAPKLVIYEVNKRPSGVPDRFSGSKSGSTASLTVSGLQADDEGVYYCSSLVGNWDVIFGGGTKLTVL , thanks.
0.3 fold
